Tested on: 786-0 renal
Test: NCI-60 one-dose screen, 48 h
Details: 10 µM
About 83,000 compounds went through this panel and 20% of them were active in at least one assay; those are over-represented in the sample as a whole. The source made the active and inactive calls. The calls were made as follows: active = growth percent below 10; inactive = the rest.
A correct response names exactly one class from 1 = active, -1 = inactive

Q. I would be grateful if you could indicate the recorded call for C[C@@H](O)[C@H]1C(=O)N2C(C(=O)O)=C(SC3CN[C@H](C(=O)N(C)C)C3)[C@H](C)[C@H]12 (stereo not given in full) .
A. -1

Q. Which outcome was assigned to COc1ccc(/C(C#N)=C/c2cccc(OC)c2OC)cc1 in this test?
A. -1

Q. // param item: COc1ccc(-c2cc(-c3ccc(OC)c(OC)c3)nc(SCCCC(=O)NO)n2)cc1 ; yields the recorded call
A. 1

Q. For Nc1nc(N)c(N)c(Nc2ccc(CCO)cc2)n1 , what call appears in the results of this test?
A. -1

Q. Short answer needed: outcome of this test for COc1ccc([C@H]2[C@H](C(=O)Nc3cccnc3)c3ccccc3C(=O)N2c2ccccc2)cc1 ?
A. -1
